Source listed as PubChem BioAssay (NCI).

In this section we review reported growth values for a set of compounds.
Test system: KM12 colon
assayProcedure: NCI-60 one-dose screen, 48 h (100 = growth as untreated, 0 = no growth, -100 = all killed)
setupConditions: 10 µM unless noted
The panel holds about 83,000 compounds, 20% with a hit somewhere; the sample as a whole holds those more often. Activity calls are given as the source filed them. Rule for the calls: active = growth percent below 10; inactive = the rest.
quantityMeasured: growth

1) O=C(c1c[nH]c2ccccc12)c1n[nH]c(=S)n1-c1ccc([N+](=O)[O-])cc1
67.4% (inactive)
2) CC1(C)CC[C@]23CC[C@]4(C)[C@H](CC[C@@H]5[C@@]6(C)C/C(=C/O)C(=O)C(C)(C)[C@@H]6CC[C@]54C)[C@H]2[C@H]1OC3
114% (inactive)
3) CCCCCCCCCCCCCCCCCCOc1ccccc1CC(=O)NCC[N+](C)(C)C
-27% (active)
4) CCOC(=O)C/C(=N\Nc1cc(=O)[nH]c2ccc(OC)cc12)C(=O)OCC
99.2% (inactive)
5) Cc1cccc(-c2nc(C(C)C)sc2-c2ccnc(NCCCNS(=O)(=O)c3ccc(Cl)cc3)c2)c1
58.1% (inactive)
6) c1cc(OCCN2CCCC2)ccc1CNc1ccc2nc(CCC3CCCCC3)[nH]c2c1
52.5% (inactive)

* * *

Form field: growth (one value per entry).
Test system: NCI-H322M lung
assayProcedure: NCI-60 one-dose screen, 48 h (100 = growth as untreated, 0 = no growth, -100 = all killed)
setupConditions: 10 µM unless noted
Description: Growth inhibition of the NCI-H322M human Non-Small Cell Lung tumor cell line is measured as a screen for anti-cancer activity. Cells are grown in 96 well plates and exposed to the test compound for 48 hours. Compounds are tested at a single concentration, which is 10^-5 M for most compounds. The reported endpoint is percent growth (GI% or GIPRCNT), where numbers from 0 - 100% represent growth inhibition, and numbers from -100% - 0 represent cell death. […]
The panel holds about 83,000 compounds, 20% with a hit somewhere; the sample as a whole holds those more often.
quantityMeasured: growth (%)

1. CCCCCc1ccc(S(=O)(=O)Nc2ccc3nc(N)oc3c2)cc1
96.9
2. O=CCCCOCc1ccccc1
110
3. C[N+]1=C(/C=C/c2ccccc2Cl)C(C)(C)c2ccccc21
98.6
4. COc1cc(/C=C/c2cc(/C=C/c3ccc(O)c(OC)c3)n(C(=O)Nc3ccc(Cl)cc3)n2)ccc1O
22.1
5. CC[C@@H](C(=O)[C@@H](C)[C@@H](O)[C@H](C)[C@@H]1O[C@@H]([C@@H](CC)C(=O)ONC(=O)c2ccccc2O)CC[C@@H]1C)C1O[C@]2(C=CC(=O)[C@]3(CC[C@@](C)([C@H]4CC[C@](O)(CC)[C@H](C)O4)O3)O2)[C@H](C)C[C@@H]1C (stereo not given in full)
70

* * *

Tested on: RXF 393 renal
assayProcedure: NCI-60 one-dose screen, 48 h
setupConditions: 10 µM unless noted
The panel holds about 83,000 compounds, 20% with a hit somewhere; the sample as a whole holds those more often. Active and inactive are the calls of the source. The calls were made as follows: active = growth percent below 10; inactive = the rest.
Labels: y for active, n for inactive

1. NCCCNc1nc2ccccc2c2c(=O)c3cc(Cl)ccc3sc12
n
2. Cc1ccc(S(=O)(=O)OCC#CCOS(=O)(=O)c2ccc(C)cc2)cc1
n
3. Cc1cccc(NC(=O)Cn2cc(CN3CCN(c4ccnc5cc(Cl)ccc45)CC3)nn2)c1
n
4. COc1ccc(/C=N/NC(=O)Cn2c(-c3ccc(S(C)(=O)=O)cc3)nc3ccccc32)cc1
n
5. CN1CCN(c2ccc(NC3=CC(=O)c4ncncc4C3=O)cc2)CC1
y

* * *

Tested on: HCC-2998 colon
assayProcedure: NCI-60 one-dose screen, 48 h
setupConditions: 10 µM unless noted
The panel holds about 83,000 compounds, 20% with a hit somewhere; the sample as a whole holds those more often. Active and inactive are the calls of the source. How the source made its calls: active means growth percent below 10; inactive means the rest.
Possible outcomes: active, inactive

1) Cn1cc(-c2csc(-c3cn(C)c4ccccc34)n2)c2cnccc21
active
2) CN1C(=O)/C(=C/c2ccc(C(=O)Nc3ncc(Cc4cc(Cl)ccc4Cl)s3)cc2)SC1=S
inactive
3) Cc1c2ccccc2nc2cc3c(cc12)[C@H]1CC[C@]2(C)C(=O)CC[C@H]2[C@@H]1CC3
inactive
4) C/C(Cc1ccc(Cl)cc1)=C(\c1ccc(OCCN2CCCCCC2)cc1)c1ccc(OC(=O)c2ccccc2)cc1
inactive
5) S=c1ccnc[nH]1
inactive
6) O=C(Nc1ccc(Oc2cccc(Cl)c2)c(Cl)c1)c1cccnn1
inactive
7) COC(=O)/C=C1/SC(=NCc2ccccc2)N(CCc2c[nH]c3ccccc23)C1=O
inactive
8) CN(C)c1ccc(/C=C2\C=C(c3nc4ccccc4s3)OC2=O)cc1
inactive
9) COCCn1cc(-c2nc(-c3cn(CCOC)c4ncccc34)cs2)c2cc(F)ccc21
inactive
10) c1ccc(-c2c(-c3ccccc3)[n+](Cc3ccc4ccccc4c3)cn2Cc2ccc3ccccc3c2)cc1
active
11) CN(C)CCCn1c2c(c3ccncc3c1=O)C(=O)c1ccccc1-2
inactive
12) O=C(NCCNC(c1ccccc1)C(NCCNC(=O)c1ccccc1)c1ccccc1)c1ccccc1 (stereo not given)
inactive
13) CCN(CC)CCOc1ccc2c(-c3ccccc3)c(-c3ccc(OC)cc3)c(=O)oc2c1
inactive
14) CN(C)C1CN(C(=O)c2cc(-c3ccc4ncnc(N5CCc6cc(F)c(Cl)cc65)c4c3)cnc2N)C1
inactive
15) Clc1ccc(Nc2nnc(CNc3ccccc3)c3ccccc23)cc1
inactive
16) COc1cc2c(c(OC)c1OC)C(=O)CC(c1cccc(C(=O)Nc3ccccc3Br)c1)O2 (stereo not given)
inactive
17) Nc1nc(N)c2c(n1)NC(c1cccc(Nc3ccnc4cc(C(F)(F)F)ccc34)c1)CC(c1ccc3c(c1)OCO3)=N2 (stereo not given)
inactive
18) CCOC(=O)c1c(C)nc2c(c1N)C(=O)C(=O)N2Cc1ccc(OC)cc1
inactive
19) Brc1ccc(Nc2nc(Nc3cnc4ccccc4c3)c3[nH]cnc3n2)cc1
inactive
20) CCCN(CCSSCCNc1nc(N(C)O)nc(N(C)O)n1)c1nc(N(C)O)nc(N(C)O)n1
inactive

* * *

Tested on: 786-0 renal
assayProcedure: NCI-60 one-dose screen, 48 h
setupConditions: 10 µM unless noted
About 83,000 compounds went through this panel and 20% of them were active in at least one assay; those are over-represented in the sample as a whole. The source made the active and inactive calls. Rule for the calls: active = growth percent below 10; inactive = the rest.
Classes used: class 1 = active, class 0 = inactive

1) Cc1nn(C)c2ncnc(N/N=C/c3cccc(O)c3O)c12
class 1
2) COc1cc(/C=C2\C(=O)N(CCCOc3cc(O)c4c(=O)cc(-c5ccccc5)oc4c3)c3ccccc32)cc(OC)c1O
class 0
3) CS(=O)(=O)Nc1cc(-c2ccc3ncnc(Nc4ccc(OCc5ccccn5)c(Cl)c4)c3c2)cnc1Cl
class 0
4) C=C(C)[C@@H]1CC[C@]2(C(=O)Nc3ccccn3)CC[C@]3(C)[C@H](CC[C@@H]4[C@@]5(C)CCCNC(C)(C)[C@@H]5CC[C@]43C)[C@@H]12
class 0

* * *

# growth values compiled below
Tested on: BT-549 breast
assayProcedure: NCI-60 one-dose screen, 48 h (100 = growth as untreated, 0 = no growth, -100 = all killed)
setupConditions: 10 µM unless noted
Compounds without any hit were thinned out: in the full panel of roughly 83,000, 20% have a hit.
quantityMeasured: growth (%)

1) CCN(CCNc1ccc(C)c2sc3cc(Cl)ccc3c(=O)c12)CC(C)(C)O
84.9
2) CCCn1c(=S)sc2c(NNC(C)=O)nc(C)nc21
110
3) O=C1/C(=C/c2c[nH]c(=O)[nH]c2=O)SC(=S)N1Cc1ccccc1
107
4) Nc1cc(Br)cc2c1[nH]c(=O)c1ccccc12
86.9
5) O=S(=O)(N=C1C(Cl)=C(Cl)C(=NS(=O)(=O)c2ccccc2)C(Cl)=C1Cl)c1ccccc1
86.6

* * *

Test system: IGROV1 ovarian
assayProcedure: NCI-60 one-dose screen, 48 h (100 = growth as untreated, 0 = no growth, -100 = all killed)
setupConditions: 10 µM unless noted
This is part of a sample that, as a whole, favours compounds with a hit. Of some 83,000 tested, about 20% had one in any assay.
Classify as follows. Reported growth greater than or equal to 50%: TRUE. Reported growth below: FALSE.

1) O=C(O)c1cn(C2CC2)c2cc(N3CCN(C(=O)N4CCOCC4)CC3)c(F)cc2c1=O
TRUE
2) O=C(O)c1cn(C2CC2)c2cc(N3CCN(C(=O)N/N=C/c4cccc5ccccc45)CC3)c(F)cc2c1=O
TRUE
3) O=C(NN1C(=O)CSC1c1cccc([N+](=O)[O-])c1)c1ccc(NC(=O)c2ccccn2)cc1 (stereo not given)
TRUE
4) CCSc1ccnc(N)n1
TRUE
5) N#Cc1c(-c2ccccc2)cc(-c2ccccc2)n(CCCCC(=O)NO)c1=O
FALSE
6) CCN(CC)C(=O)CC1=C(C)/C(=C/c2[nH]c(-c3ccc[nH]3)cc2OC)N=C1C
FALSE
7) CCN(CC)CCN1C(=O)c2c(c3c4ccccc4[nH]c3c3ccc4ccccc4c23)C1=O
TRUE
8) CSc1ccc(N2C(=N)C(=S)N(c3ccc(C)cc3)C2=O)cc1
TRUE
9) COc1ccc(N=C2NN=C(c3c[nH]c4ccccc34)CS2)cc1OC
FALSE
